Ref: patent US20230303690A1

TEST_TARGET: T1, human LAG3 expressed on cells (human, UniProt P18627 23-525)
T1 sequence (looked up): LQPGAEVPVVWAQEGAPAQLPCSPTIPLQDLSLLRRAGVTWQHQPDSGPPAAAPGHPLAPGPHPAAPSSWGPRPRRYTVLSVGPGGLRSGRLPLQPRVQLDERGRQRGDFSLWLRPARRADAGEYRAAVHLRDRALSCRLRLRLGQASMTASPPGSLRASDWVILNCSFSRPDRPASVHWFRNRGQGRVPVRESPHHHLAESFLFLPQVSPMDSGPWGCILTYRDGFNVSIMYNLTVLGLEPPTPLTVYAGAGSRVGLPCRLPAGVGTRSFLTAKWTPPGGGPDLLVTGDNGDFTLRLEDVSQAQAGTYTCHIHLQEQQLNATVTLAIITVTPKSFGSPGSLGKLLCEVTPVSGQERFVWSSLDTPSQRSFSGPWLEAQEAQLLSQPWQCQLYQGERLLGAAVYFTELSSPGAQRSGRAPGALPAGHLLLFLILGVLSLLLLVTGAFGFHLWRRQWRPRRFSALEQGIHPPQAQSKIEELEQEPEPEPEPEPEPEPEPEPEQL
TEST: cell-based or functional assay
Listed next: entries and their corresponding IL-2, % of BMS, at 0.045724737 ug/mL.
Numbers only here, please. The scale is %.

Solved entries:
| BINDER | IL-2, % of BMS, at 0.045724737 ug/mL (%) |
| --- | --- |
| combination of sdAbs 25 and 2015 (other) VHH 1: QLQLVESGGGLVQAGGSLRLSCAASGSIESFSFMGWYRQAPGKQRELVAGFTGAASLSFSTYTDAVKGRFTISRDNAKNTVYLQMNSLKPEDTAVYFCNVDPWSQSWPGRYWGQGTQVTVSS VHH 2: QLQLVESGGGLAQTGGSLRLSCAAAGFTFDDTATGWFRQAPGKNREGVACISSSDGRIHYIDSAKGRFTISKDNAKKTVYLQMDSLKPEDTAVYYCAAARKGSTDCQGAIWGSWGQGTQVIVSS | -2.03 |
| sdAb No. 18 (VHH, Fc of the tested form not described; also called sdAb 18; not shown: Fc part implied by anti-human Fc capture) VHH: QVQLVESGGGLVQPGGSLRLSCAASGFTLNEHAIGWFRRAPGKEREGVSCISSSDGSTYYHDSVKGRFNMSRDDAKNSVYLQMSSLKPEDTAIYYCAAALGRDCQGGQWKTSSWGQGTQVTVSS | 12.9 |

Please examine the following record next.
So what does the record say about IL-2, % of BMS, at 0.045724737 ug/mL for combination of sdAbs 25 and 27 (other) VHH 1: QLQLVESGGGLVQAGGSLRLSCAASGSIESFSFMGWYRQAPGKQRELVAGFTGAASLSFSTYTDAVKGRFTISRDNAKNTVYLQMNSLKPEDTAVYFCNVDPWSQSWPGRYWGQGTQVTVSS VHH 2: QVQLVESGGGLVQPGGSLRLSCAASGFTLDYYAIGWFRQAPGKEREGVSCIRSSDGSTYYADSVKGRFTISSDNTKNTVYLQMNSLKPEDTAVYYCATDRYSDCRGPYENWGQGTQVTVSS ?
-1.96
